Target: Phospholipase A and acyltransferase 5 (Homo sapiens, UniProt Q96KN8)
Sequence (Q96KN8 whole entry): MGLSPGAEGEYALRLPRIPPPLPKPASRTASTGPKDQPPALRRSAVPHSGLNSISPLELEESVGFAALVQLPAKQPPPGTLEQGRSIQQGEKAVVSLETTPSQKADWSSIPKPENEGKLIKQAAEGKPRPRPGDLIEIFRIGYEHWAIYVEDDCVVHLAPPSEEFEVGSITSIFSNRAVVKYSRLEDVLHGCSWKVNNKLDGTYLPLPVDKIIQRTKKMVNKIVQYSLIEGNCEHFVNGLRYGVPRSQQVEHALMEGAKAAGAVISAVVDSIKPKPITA
Assay: Inhibition of full-length C-terminal FLAG-tagged human PLAAT5 expressed in HEK293T cell lysate preincubated for 30 mins followed by MB064 addition and measured after 20 mins by SDS-PAGE based ABPP analysis
pIC50: −log10 of the molar value.
Parameter: pIC50

Worked cases, pIC50 given:
Line notation	pIC50
O=C(CCc1ccc(Cl)cc1)C(=O)NCCCCc1ccccc1	6.70
COc1ccc(/C=C/C(=O)C(=O)NCCc2ccccc2)cc1	6.00
O=C(CCCc1ccccc1)C(=O)NCCc1cccc(Cl)c1	7.30
O=C(CCc1ccc(Oc2ccccc2)cc1)C(=O)NCCc1ccccc1	6.90
O=C(CCCc1ccccc1)C(=O)NCCc1ccc(Oc2ncccn2)cc1	6.60

a = O=C(/C=C/c1ccc(Br)cc1)C(=O)NCCc1ccccc1
b = O=C(CCCc1ccccc1)C(=O)NCCc1ccc(Oc2ccccc2)cc1
query: Returns: the label, a or b , whose recorded pIC50 is the lower number. State the label of the item chosen.
result: a
(a: 6.20, b: 7.40)

a = O=C(CCc1cccc(Cl)c1)C(=O)NCCc1ccccc1
b = Cc1ccc(CCC(=O)C(=O)NCCc2ccccc2)cc1
c = O=C(CCCc1ccccc1)C(=O)NCCc1ccc(Oc2ccc(C(F)(F)F)nc2)cc1
query: Order the records, beginning with the lowest pIC50 and ending with the highest. To answer, arrange all of the labels according to the requested order.
result: b, a, c
(b: 5.60, a: 5.90, c: 7.10)

I = O=C(CCc1ccccc1Cl)C(=O)NCCc1ccccc1
II = O=C(CCc1ccccc1)C(=O)NCCc1ccccc1
query: Please choose the item with the lower pIC50 value from this pair: I and II // return label of chosen record
result: I
(I: 5.80, II: 6.00)

P = O=C(CCc1ccc(F)cc1)C(=O)NCCc1ccccc1
Q = O=C(CCCc1ccccc1)C(=O)NCCc1ccc(Cl)cc1Cl
R = CCNC(=O)C(=O)CCc1ccc(Cl)cc1
S = O=C(CCc1ccc(Cl)cc1)C(=O)NCc1ccccc1
query: Ascending by pIC50, please: list the compounds accordingly. // format: requested-order list of labels
result: P, R, S, Q
(P: 5.80, R: 6.00, S: 6.60, Q: 7.20)
